Test system: soybean (Glycine max)
Assay: Test A1 postemergence, soybean
Type: in vivo
Conditions: Postemergence, 125 g ai/ha; 0 to 100 scale
Consider the following compounds; for each one, report its Plant response rating, Soybean.
Numbers only.

[
  {
    "Compound": "Cc1c(NS(=O)(=O)C(F)(F)F)cc(C(=O)N2CCCCC2)c(C)c1C [Compound 326]",
    "Plant response rating, Soybean": 70
  },
  {
    "Compound": "Cc1cc(C)c(N(COC(=O)C(C)(C)C)S(=O)(=O)C(F)(F)F)cc1C1=NOC2COCC12 (centres unmarked) [Compound 301]",
    "Plant response rating, Soybean": 40
  },
  {
    "Compound": "C#CCN(C)C(=O)c1cc(N(COC(=O)C(C)(C)C)S(=O)(=O)C(F)(F)F)c(C)c(C)c1C [Compound 371]",
    "Plant response rating, Soybean": 90
  },
  {
    "Compound": "COCC1CC(c2cc(NS(=O)(=O)C(F)(F)F)c(C)cc2C)=NO1 (centres unmarked) [Compound 319]",
    "Plant response rating, Soybean": 50
  }
]

Consider the following items and state reported Plant response rating, Soybean for each.
1. Cc1cc(C)c(N(COC(=O)C(C)(C)C)S(=O)(=O)C(F)(F)F)cc1C(=O)N1CCC(C)CC1 [Compound 353]
2. CCc1cc(C)c(NS(=O)(=O)C(F)(F)F)cc1C1=NOC2CCCC12 (centres unmarked) [Compound 305]
3. Cc1c(C(=O)N2CCC(Cl)CC2)cc(N(COC(=O)C(C)(C)C)S(=O)(=O)C(F)(F)F)c(C)c1C [Compound 359]

1. 60
2. 50
3. 60

soybean (Glycine max) Plant response rating, Soybean of CCC1ON=C(c2cc(N(COC(=O)C(C)(C)C)S(=O)(=O)C(F)(F)F)c(C)cc2C)C1CC (centres unmarked) [Compound 347] is 50
